For each of the compounds below, state its pIC50.
molecular target: Arginase-1 (Homo sapiens); experiment: Inhibition of human recombinant ARG1 expressed in Escherichia coli using L-arginine hydrochloride as substrate assessed as inhibition of urea production incubated for 20 mins by colorimetric analysis
Schema: pIC50 number; meaning minus log10 of the concentration expressed in molar units.

Recall and state the measured pIC50 for "N[C@]1(C(=O)O)C[C@H](CCB(O)O)CN(C(=O)[C@@H]2CCCN2)C1" .
6.46

Find the measured pIC50 of "N[C@@H](Cc1c[nH]cn1)C(=O)N1C[C@@H](CCB(O)O)C[C@](N)(C(=O)O)C1" and report it.
6.68

State its pIC50 for this compound: "C[C@H](N)C(=O)N1C[C@@H](CCB(O)O)C[C@](N)(C(=O)O)C1"
6.57

Fill in reported pIC50 for this entry: "C[C@@H](N)C(=O)N1C[C@@H](CCB(O)O)C[C@](N)(C(=O)O)C1"
5.49

Identify the reported pIC50 for the following entry. "CC(C)C[C@H](N)C(=O)N1C[C@@H](CCB(O)O)C[C@](N)(C(=O)O)C1"
6.21

Answer with the recorded pIC50 for the compound listed here: "N=C(N)NCCC[C@H](N)C(=O)N1C[C@@H](CCB(O)O)C[C@](N)(C(=O)O)C1"
6.80

----------
Kindly supply the reported IC50 values for the records listed here.
target: Arginase-1 (Homo sapiens, UniProt P05089); assay: Inhibition of human recombinant ARG1 expressed in Escherichia coli using L-arginine hydrochloride as substrate assessed as inhibition of urea production incubated for 20 mins by colorimetric analysis
Sequence (P05089 whole entry): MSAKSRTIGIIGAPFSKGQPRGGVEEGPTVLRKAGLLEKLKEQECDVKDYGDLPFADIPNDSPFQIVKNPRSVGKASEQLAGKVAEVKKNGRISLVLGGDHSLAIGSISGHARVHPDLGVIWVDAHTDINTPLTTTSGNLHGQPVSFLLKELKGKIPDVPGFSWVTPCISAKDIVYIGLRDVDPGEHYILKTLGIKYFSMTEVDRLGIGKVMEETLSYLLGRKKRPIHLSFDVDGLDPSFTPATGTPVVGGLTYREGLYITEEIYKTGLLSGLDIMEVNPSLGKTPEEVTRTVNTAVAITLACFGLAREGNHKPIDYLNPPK

Look up and report measured IC50 for this entry: "C[C@H](N)C(=O)N1C[C@H](CCB(O)O)C[C@@](N)(C(=O)O)C1"
> 10 µM

Specify measured IC50 for "C[C@H](N)C(=O)N1C[C@@H](CCB(O)O)C[C@@](N)(C(=O)O)C1" .
> 10 µM

# return recorded IC50 for entry "COC(=O)[C@@]1(N)C[C@H](CCB(O)O)CN(C(=O)[C@H](C)N)C1"
> 10 µM

Data origin, for the record: ChEMBL document CHEMBL5537146
